- assay-method-text: qHTS RealTime-Glo MT Cell Viability Assay in HEK293 cells - 40 hour (AID 1224874); note: % is set by controls: 0 for no effect and ±100 for the full control effect; nearly all actives have a fitted effect of over 50% in size
- test-context: RealTime-Glo luminescence; active compounds read low
Inconclusive results are not listed. The source made the active and inactive calls. Calls come from the whole dose curve; as a rule, active = well fitted cell-killing curve with a large enough effect in the repeat runs; inconclusive = weak or mixed curves, or effect the other way; inactive = flat fitted curve, though single readings scatter.
So I've got a bunch of molecules here, and I need their max response values.

[Q] Entry `O=C(O)C(=O)Cc1c[nH]c2ccccc12` has what max response?
[A] 2.14% (inactive)

[Q] Entry `CN(C)CC[C@@H](c1ccc(Cl)cc1)c1ccccn1` has what max response?
[A] -0.584% (inactive)

[Q] Entry `CCCCNCCCC` has what max response?
[A] 1.62% (inactive)

[Q] Entry CCCN(CCC)C(=O)C(CCC(=O)O)NC(=O)c1ccccc1 (centres undefined) has what max response?
[A] 3.51% (inactive)

[Q] Entry `CC(C)Nc1nc(N)nc(Cl)n1` has what max response?
[A] 10.6% (inactive)

[Q] Entry `N#Cc1ccc(C(c2ccc(C#N)cc2)n2cncn2)cc1` has what max response?
[A] -0.518% (inactive)

[Q] Entry `CN(C)Cc1ccccc1` has what max response?
[A] 7.47% (inactive)

[Q] Entry `CC(=O)N[C@@H](CC(C)C)C(=O)O` has what max response?
[A] -2.78% (inactive)

[Q] Entry `NCCCN1CCN(CCCN)CC1` has what max response?
[A] 6.33% (inactive)

[Q] Entry CC(C)=CCCC(C)CCOC=O (centres undefined) has what max response?
[A] 13.4% (inactive)

[Q] Entry `CC(C)CC(=O)OCc1ccccc1` has what max response?
[A] 3.51% (inactive)

[Q] Entry `Cc1ccc(C(C)C)cc1O` has what max response?
[A] -12% (inactive)

[Q] Entry `CCOC(=O)[C@H](CCc1ccccc1)N[C@@H](C)C(=O)N1Cc2cc(OC)c(OC)cc2C[C@H]1C(=O)O` has what max response?
[A] 3.96% (inactive)

[Q] Entry COc1ccccc1OCC(O)COC(N)=O (centres undefined) has what max response?
[A] 12.1% (inactive)

* * *

- assay-method-text: qHTS RealTime-Glo MT Cell Viability Assay in HEK293 cells - 8 hour (AID 1224887); note: nearly all actives have a fitted effect of over 50% in size
- test-context: RealTime-Glo luminescence; series mostly up to 76.8 µM
Records with an inconclusive call do not appear. Active and inactive are the calls of the source. Calls follow the shape of the dose curve; as a rule, active = well fitted cell-killing curve with a large enough effect in the repeat runs; inconclusive = weak or mixed curves, or effect the other way; inactive = flat fitted curve, though single readings scatter.
Your reply should match one of these outcome classes. active, inactive

[Q] Lab log entry: `CC1=CC(=O)CC(C)(C)C1=O` — outcome as called in the assay?
[A] inactive

[Q] Lab log entry: `Cc1cccc(C)c1NC(=O)CN1CCCCCC1` — outcome as called in the assay?
[A] inactive

[Q] Lab log entry: `CO[C@@]1(NC(=O)CSCC#N)C(=O)N2C(C(=O)O)=C(CSc3nnnn3C)CS[C@@H]21` — outcome as called in the assay?
[A] inactive

[Q] Lab log entry: `OCCN(CCO)CCN(CCO)CCO` — outcome as called in the assay?
[A] inactive

[Q] Lab log entry: `CCCCNc1ccc(C(=O)OCCN(CC)CC)cc1` — outcome as called in the assay?
[A] inactive

[Q] Lab log entry: `CCOC(=O)[C@H](CCc1ccccc1)N[C@@H](C)C(=O)N1Cc2cc(OC)c(OC)cc2C[C@H]1C(=O)O` — outcome as called in the assay?
[A] inactive

[Q] Lab log entry: `Cc1ccc([N+](=O)[O-])c(N)c1` — outcome as called in the assay?
[A] inactive

[Q] Lab log entry: CNCCC(Oc1ccccc1OC)c1ccccc1 (stereo not drawn) — outcome as called in the assay?
[A] inactive

[Q] Lab log entry: `COc1ccc(S(=O)(=O)Nc2nnc(CC(C)C)s2)cc1` — outcome as called in the assay?
[A] inactive

[Q] Lab log entry: `CC/C=C\CCOC(=O)CCCCC` — outcome as called in the assay?
[A] inactive

[Q] Lab log entry: `CCCCCCCCCC#N` — outcome as called in the assay?
[A] inactive

[Q] Lab log entry: `C=CCCC=C` — outcome as called in the assay?
[A] inactive

[Q] Lab log entry: `CCN[C@H]1CN(CCCOC)S(=O)(=O)c2sc(S(N)(=O)=O)cc21` — outcome as called in the assay?
[A] inactive

[Q] Lab log entry: CC(=O)OC1C2(C)CCC(C2)C1(C)C (stereo not drawn) — outcome as called in the assay?
[A] inactive

[Q] Lab log entry: `CN(C)CCOc1ccccc1Cc1ccccc1` — outcome as called in the assay?
[A] inactive

[Q] Lab log entry: `CCc1nnc(NS(=O)(=O)c2ccc(N)cc2)s1` — outcome as called in the assay?
[A] inactive

[Q] Lab log entry: `COc1cc(N)c(Cl)cc1C(=O)NC1CCN(Cc2ccccc2)CC1` — outcome as called in the assay?
[A] active

[Q] Lab log entry: `OCC(CBr)(CBr)CBr` — outcome as called in the assay?
[A] inactive

[Q] Lab log entry: `ICCc1ccccc1` — outcome as called in the assay?
[A] inactive

[Q] Lab log entry: `CC1(C)O[C@@H]2C[C@H]3[C@@H]4CCC5=CC(=O)CC[C@]5(C)[C@@]4(F)[C@@H](O)C[C@]3(C)[C@]2(C(=O)CCl)O1` — outcome as called in the assay?
[A] inactive

[Q] Lab log entry: CC(C)NCC(O)COc1ccc(CCOCC2CC2)cc1 (stereo not drawn) — outcome as called in the assay?
[A] inactive

[Q] Lab log entry: `CN(C)Cc1ccccc1` — outcome as called in the assay?
[A] inactive

[Q] Lab log entry: `Oc1ccccc1F` — outcome as called in the assay?
[A] inactive

* * *

- assay-method-text: qHTS assay to identify small molecule antagonists of the thyroid receptor (TR) signaling pathway - cell viability counter screen (AID 743064); note: nearly all actives have a fitted effect of over 50% in size
- test-context: GH3.TRE-Luc viability, CellTiter-Fluor, 24 h; series mostly up to 70.3 µM
- Text: National Center for Advancing Translational Sciences [NCATS] NIH Chemical Genomics Center [NCGC] U.S. Environmental Protection Agency [EPA] National Institutes of Environmental Health Sciences [NIEHS] National Toxicology Program [NTP] U.S. Food and Drug Administration [FDA] Thyroid receptor (TR), a nuclear hormone receptor, plays an important role in development, proliferation, differentiation, metabolism, brain function, and cardiovascular system. […]
Inconclusive results are not listed. Calls of active or inactive are those of the source. The call rests on the fitted dose curve; in most records, active means well fitted cell-killing curve with a large enough effect in the repeat runs; inconclusive means weak or mixed curves, or effect the other way; inactive means no such curve, though single readings can be large or run the other way.
Your reply should match one of these outcome classes. t = active, f = inactive

[Q] Lab log entry: `C1CCOC1` — outcome as called in the assay?
[A] f

[Q] Lab log entry: `Cc1c(-c2ccccc2)oc2c(C(=O)OCCN3CCCCC3)cccc2c1=O` — outcome as called in the assay?
[A] f

[Q] Lab log entry: `O=S(=O)(O)C(F)(F)F` — outcome as called in the assay?
[A] f

[Q] Lab log entry: `CS(=O)(=O)c1ccc([C@@H](O)[C@@H](CF)NC(=O)C(Cl)Cl)cc1` — outcome as called in the assay?
[A] f

[Q] Lab log entry: CN1[C@@H]2CC[C@H]1CC(OC(=O)c1c[nH]c3ccccc13)C2 (stereo partly specified) — outcome as called in the assay?
[A] t

[Q] Lab log entry: `CCC(=O)O[C@]1(C(=O)SCF)[C@H](C)C[C@H]2[C@@H]3C[C@H](F)C4=CC(=O)C=C[C@]4(C)[C@@]3(F)[C@@H](O)C[C@@]21C` — outcome as called in the assay?
[A] f

* * *

- target-under-test: Cytochrome P450 3A4 (Homo sapiens) (UniProt P08684)
- Sequence (P08684 whole entry, looked up): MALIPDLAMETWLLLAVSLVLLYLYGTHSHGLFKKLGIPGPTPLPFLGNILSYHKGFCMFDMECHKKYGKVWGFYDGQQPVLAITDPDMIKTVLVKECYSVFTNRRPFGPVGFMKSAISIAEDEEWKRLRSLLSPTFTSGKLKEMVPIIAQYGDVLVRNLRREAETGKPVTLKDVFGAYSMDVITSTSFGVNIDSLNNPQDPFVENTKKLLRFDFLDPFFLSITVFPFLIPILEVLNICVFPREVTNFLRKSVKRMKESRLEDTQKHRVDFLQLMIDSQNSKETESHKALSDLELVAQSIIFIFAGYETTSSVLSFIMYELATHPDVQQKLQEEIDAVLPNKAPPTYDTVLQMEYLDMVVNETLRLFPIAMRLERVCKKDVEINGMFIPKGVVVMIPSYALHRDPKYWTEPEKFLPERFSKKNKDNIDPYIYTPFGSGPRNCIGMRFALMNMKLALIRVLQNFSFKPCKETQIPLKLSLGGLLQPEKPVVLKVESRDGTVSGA
- assay-method-text: Cytochrome P450 Family 3 Subfamily A Member 4 (CYP3A4) small molecule antagonists: luciferase reporter qHTS assay (AID 1671201); note: nearly all actives have a fitted effect of over 50% in size
- test-context: P450-Glo CYP3A4 enzyme, luciferin luminescence, 1 h; series mostly up to 115 µM
Inconclusive results are not listed. Active and inactive are the calls of the source. The call rests on the fitted dose curve; in most records, active means well fitted inhibition curve with a large enough effect in the repeat runs; inconclusive means weak or mixed curves; inactive means no such curve, though single readings can be large or run the other way.
Your reply should match one of these outcome classes. active, inactive

[Q] Lab log entry: `CC(C)(CO)[C@@H](O)C(=O)NCCC(=O)O` — outcome as called in the assay?
[A] inactive

[Q] Lab log entry: `NNS(=O)(=O)c1ccc(Oc2ccc(S(=O)(=O)NN)cc2)cc1` — outcome as called in the assay?
[A] inactive

[Q] Lab log entry: `O=c1[nH]c(=O)n([C@H]2C[C@H](O)[C@@H](CO)O2)cc1C(F)(F)F` — outcome as called in the assay?
[A] inactive

[Q] Lab log entry: CC(C)C(=O)OCC(C)(C)C(O)C(C)C (stereo not given) — outcome as called in the assay?
[A] inactive

[Q] Lab log entry: CCCCC(CC)COC(=O)COc1cc(Cl)c(Cl)cc1Cl (stereo not given) — outcome as called in the assay?
[A] active

[Q] Lab log entry: `CCOC(=O)c1ccccc1O` — outcome as called in the assay?
[A] inactive

[Q] Lab log entry: `COc1ccc2nc(NC(=O)Nc3ccccc3)sc2c1` — outcome as called in the assay?
[A] inactive

[Q] Lab log entry: `Cc1cc2nc(N)sc2cc1C` — outcome as called in the assay?
[A] active

[Q] Lab log entry: `CO[C@@]1(NC(=O)CSCC#N)C(=O)N2C(C(=O)O)=C(CSc3nnnn3C)CS[C@@H]21` — outcome as called in the assay?
[A] inactive

[Q] Lab log entry: `FC(F)(F)C(F)(F)C(F)(F)C(F)(F)C(F)(F)C(F)(F)C(F)(F)C(F)(F)Br` — outcome as called in the assay?
[A] inactive

[Q] Lab log entry: CC(=O)OC1C2(C)CCC(C2)C1(C)C (stereo not given) — outcome as called in the assay?
[A] inactive

[Q] Lab log entry: `CCCCCCn1c(=O)c2c(ncn2C)n(C)c1=O` — outcome as called in the assay?
[A] inactive

[Q] Lab log entry: O=C1CCCCC1C1CCCCC1 (stereo not given) — outcome as called in the assay?
[A] inactive

[Q] Lab log entry: `OCC(CBr)(CBr)CBr` — outcome as called in the assay?
[A] inactive

[Q] Lab log entry: `CCCc1c2oc(C(=O)O)cc(=O)c2cc2c(=O)cc(C(=O)O)n(CC)c12` — outcome as called in the assay?
[A] inactive

[Q] Lab log entry: CCCCC1CCC(=O)O1 (stereo not given) — outcome as called in the assay?
[A] inactive

[Q] Lab log entry: `Cc1ncc(CO)c(CN)c1O` — outcome as called in the assay?
[A] inactive

[Q] Lab log entry: CCCC1CCC(=O)O1 (stereo not given) — outcome as called in the assay?
[A] inactive

[Q] Lab log entry: `CCOc1ccc(OCC)c(Cl)c1` — outcome as called in the assay?
[A] inactive

[Q] Lab log entry: `CC1=C2[C@H](/C=C(\C)C(=O)O)CC[C@@H](C)[C@H]2CC1` — outcome as called in the assay?
[A] inactive
